- System: rabbit aortic rings
- method.notes: Assay B: In vitro vascular smooth muscle response for AII (antagonist activity, pA2)
- Assay type: cell-based
- experimental.setup: Oryctolagus cuniculus, two values in a cell = two determinations
Consider the following compounds and their measured Kb readings.

compound: CCCCc1nn(CC(OCC(=O)OCC)c2ccccc2)c(=O)n1Cc1ccc(-c2ccccc2-c2nn[nH]n2)cc1 (centres unmarked) [Compound 118]
Kb [µM]: 0.000617

compound: CCCCc1nn(CCCc2ccccc2)c(=O)n1Cc1ccc(-c2ccccc2-c2nn[nH]n2)cc1 [Compound 92]
Kb [µM]: 0.0126

compound: CCCCc1nc(CC)n(Cc2ccc(-c3ccccc3C(=O)O)cc2)n1 [Compound 87]
Kb [µM]: 0.0158

compound: CCCCc1cn(-c2c(C(C)C)cccc2C(C)C)c(=O)n1Cc1ccc(-c2ccccc2-c2nnn[nH]2)nc1 [Compound 246]
Kb [µM]: 0.0347

compound: CCCCc1nc(CCCC)n(Cc2ccc(-c3ccccc3C(=O)OC)cc2)n1 [Compound 12]
Kb [µM]: 0.00219

compound: CCCCc1nc2cnncc2n1Cc1ccc(-c2ccccc2C(=O)O)cc1 [Compound 119]
Kb [µM]: 0.000617

compound: CCCCn1nc(C(C)=O)nc1Cc1ccc(-c2ccccc2-c2nnn[nH]2)nc1 [Compound 194]
Kb [µM]: 0.0229

compound: CCCCc1nc(CCCO)n(Cc2ccc(-c3ccccc3-c3nnn[nH]3)cc2)n1 [Compound 57]
Kb [µM]: 1

compound: CCCCc1nn(CC(=O)OC(C)(C)C)c(=O)n1Cc1ccc(-c2ccccc2-c2nn[nH]n2)cc1 [Compound 95]
Kb [µM]: 0.00631

compound: CCCCc1nc(Cc2ccc(-c3ccccc3C(=O)O)cc2)n(CCCC)n1 [Compound 137]
Kb [µM]: 0.00501

compound: CCCCc1cn(-c2ccccc2Cl)c(=O)n1Cc1ccc(-c2ccccc2-c2nnn[nH]2)nc1 [Compound 227]
Kb [µM]: 0.0282

compound: CCCCc1nc(-c2ccccc2C(C)C)nn1Cc1ccc(-c2ccccc2-c2nnn[nH]2)nc1 [Compound 274]
Kb [µM]: 0.000871

compound: CCCCn1cc(C2CCCC2)n(Cc2ccc(-c3ccccc3-c3nnn[nH]3)nc2)c1=O [Compound 203]
Kb [µM]: 0.00372

compound: CCCCc1nc(CC2CCCCC2)nn1Cc1ccc(-c2ccccc2-c2nnn[nH]2)cc1 [Compound 85]
Kb [µM]: 0.00126

compound: CCCCCc1nc(Cc2ccc(-c3ccccc3-c3nnn[nH]3)nc2)n(CCCC)n1 [Compound 167]
Kb [µM]: 0.0832

compound: CCCCc1nc(Cl)n(Cc2ccc(-c3ccccc3C(=O)O)cc2)n1 [Compound 19]
Kb [µM]: 6.61

compound: CCCCc1nc(CN)n(Cc2ccc(-c3ccccc3-c3nnn[nH]3)cc2)n1 [Compound 47]
Kb [µM]: 0.0141
